Tested on: Avena fatua (AVEFA)
ASSAY NOTES: Glasshouse assay for herbicidal activity (pre- and post-emergence), percentage phytotoxicity
Format: in vivo
SETTINGS: Avena fatua, pre-emergence, 480 h, Rate 250 g/ha; pre-emergence; assessed visually 20 DAA; 100%=total damage, 0%=no damage; read-out: Pre-emergence herbicidal activity (percentage phytotoxicity) AVEFA PRE
EXPERIMENTAL ENDPOINT: pest or weed control at 250 g/ha
Quick note: number first, unit second.

Just so you know, measured pest or weed control at 250 g/ha for Cc1cc(-c2ncc(F)cc2F)cc(C)c1C1C(=O)CC(CC(=O)NC(C)(C)C)C1=O (centres unmarked) came out at 80%

Just so you know, measured pest or weed control at 250 g/ha for Cc1cc(-c2ncc(Cl)cc2F)cc(C)c1C1C(=O)CC(CC(=O)NC(C)c2ccc(F)cc2)C1=O (centres unmarked) came out at 80%

Just so you know, measured pest or weed control at 250 g/ha for Cc1cc(-n2cc(Cl)cn2)cc(C)c1C1C(=O)CC(CC(=O)NC2CC2)C1=O (centres unmarked) came out at 90%

Just so you know, measured pest or weed control at 250 g/ha for Cc1cc(C)c(C2C(=O)CC(CC(=O)NC(C)(C)C)C2=O)c(C)c1 (centres unmarked) came out at 10%

###

Test system: Avena fatua (AVEFA)
ASSAY NOTES: Glasshouse assay for herbicidal activity (pre- and post-emergence), percentage phytotoxicity
Assay type: in vivo
SETTINGS: Avena fatua, pre-emergence, 480 h, Rate 250 g/ha; pre-emergence; assessed visually 20 DAA; 100%=total damage, 0%=no damage; read-out: Pre-emergence herbicidal activity (percentage phytotoxicity) AVEFA PRE
EXPERIMENTAL ENDPOINT: pest or weed control at 250 g/ha (%)
Entry rule: numbers only, all in %.

> print(dat)
                                   compound  reported.result
1  CC#Cc1cc(C)c(C2C(=O)CC(CC(=O)NC3CCCC3)C2=O)c(CC)c1 (stereo not shown)               90
2  Cc1cc(-c2ncc(Cl)cc2F)cc(C)c1C1C(=O)CC(CC(=O)NCc2cccc(Cl)c2)C1=O (stereo not shown)               70
3  Cc1cc(C)c(C2C(=O)CC(CC(=O)NCc3cccc(C(F)(F)F)c3)C2=O)c(C)c1 (stereo not shown)               60
4  Cc1cc(-c2ccc(Cl)cn2)cc(C)c1C1C(=O)CC(CC(=O)NCc2ncccc2Cl)C1=O (stereo not shown)               90
5  Cc1cc(C)c(C2C(=O)CC(CC(=O)NCc3ccoc3)C2=O)c(C)c1 (stereo not shown)                0

Just so you know, measured pest or weed control at 250 g/ha for Cc1cc(C)c(C2C(=O)CC(CC(=O)NC3CCc4ccccc43)C2=O)c(C)c1 (stereo not shown) came out at 0

Just so you know, measured pest or weed control at 250 g/ha for CC#Cc1cc(C)c(C2C(=O)CC(CC(=O)NCC3CC3)C2=O)c(C)c1 (stereo not shown) came out at 90
